Where do these numbers come from? They come from patent US7057052B2.

- SUBJECT_OF_TEST: Cdc25B (Homo sapiens)
- Sequence (P30305 1-580): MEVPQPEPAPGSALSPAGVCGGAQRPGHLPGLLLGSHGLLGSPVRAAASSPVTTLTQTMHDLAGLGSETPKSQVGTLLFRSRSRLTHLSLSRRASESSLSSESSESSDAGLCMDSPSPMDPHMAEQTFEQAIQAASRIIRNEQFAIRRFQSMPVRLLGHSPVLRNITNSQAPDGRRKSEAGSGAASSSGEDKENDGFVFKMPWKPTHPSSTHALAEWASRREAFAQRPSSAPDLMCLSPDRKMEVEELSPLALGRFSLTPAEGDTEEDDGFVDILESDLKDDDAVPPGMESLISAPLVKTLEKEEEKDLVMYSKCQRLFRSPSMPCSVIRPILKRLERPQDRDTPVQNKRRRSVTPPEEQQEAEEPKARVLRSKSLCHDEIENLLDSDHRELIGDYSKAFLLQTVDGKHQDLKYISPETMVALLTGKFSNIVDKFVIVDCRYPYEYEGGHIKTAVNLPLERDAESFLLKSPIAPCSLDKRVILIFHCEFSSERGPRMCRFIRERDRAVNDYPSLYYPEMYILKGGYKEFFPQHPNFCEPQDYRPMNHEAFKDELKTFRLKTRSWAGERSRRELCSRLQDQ
- MEASUREMENT_DESCRIPTION: Cdc25B phosphatase inhibition (50 μM screen, 3 pt. and 8 pt. IC-50)
- Assay type: biochemical
- CONDITIONS: read-out: Percent Inhibition at 50 uM compound, Cdc25 B
// label = met if inhibition at 50 µM is not less than 90%, otherwise not met

Worked examples follow.
[
  {
    "COMPOUND": "Cc1ccc2[nH]cc(C3=C(O)C(=O)C=C(O)C3=O)c2c1 [4H]",
    "GROUP_LABEL": "not met"
  },
  {
    "COMPOUND": "O=C1C=C(O)C(=O)C(c2c[nH]c3cc(OCc4ccccc4)ccc23)=C1O [5C]",
    "GROUP_LABEL": "met"
  },
  {
    "COMPOUND": "O=C1C=C(O)C(=O)C(c2c[nH]c3cccc(F)c23)=C1O [3D]",
    "GROUP_LABEL": "not met"
  }
]

Proceed to the following item.
Is reported inhibition at 50 µM greater than or equal to 90% here: O=C1C=C(O)C(=O)C(c2c[nH]c3ccc(Br)cc23)=C1O [4D]
not met

====

Here the recorded IC50 is given for each entry.
- SUBJECT_OF_TEST: Cdc25B (Homo sapiens, UniProt P30305)
- MEASUREMENT_DESCRIPTION: Cdc25B phosphatase inhibition (50 μM screen, 3 pt. and 8 pt. IC-50)
- Assay type: biochemical
- CONDITIONS: Cdc25B; 3 pt. IC-50 using 1, 7 and 50 μM; read-out: IC50 (3 pt)
Value expressed in µM; do not type the unit.

Would you please look over these solved cases?
[
  {
    "MOLECULE": "CCCc1cccc2c(C3=C(O)C(=O)C=C(O)C3=O)c[nH]c12",
    "READOUT_UNITS": "µM",
    "RECORDED_MEASUREMENT": 14.1
  },
  {
    "MOLECULE": "O=C1C=C(O)C(=O)C(c2c[nH]c3ccc(Br)cc23)=C1O",
    "READOUT_UNITS": "µM",
    "RECORDED_MEASUREMENT": 2.4
  },
  {
    "MOLECULE": "O=C1C=C(O)C(=O)C(c2c[nH]c3c(OCc4ccccc4)cccc23)=C1O",
    "READOUT_UNITS": "µM",
    "RECORDED_MEASUREMENT": 1.6
  },
  {
    "MOLECULE": "O=C1C=C(O)C(=O)C(c2c[nH]c3cc(Cl)ccc23)=C1O",
    "READOUT_UNITS": "µM",
    "RECORDED_MEASUREMENT": 2.4
  },
  {
    "MOLECULE": "CC(C)(C)c1[nH]c2ccccc2c1C1=C(O)C(=O)C(c2c(C(C)(C)C)[nH]c3ccccc23)=C(O)C1=O",
    "READOUT_UNITS": "µM",
    "RECORDED_MEASUREMENT": 5.1
  },
  {
    "MOLECULE": "COc1cccc2c(C3=C(O)C(=O)C=C(O)C3=O)c[nH]c12",
    "READOUT_UNITS": "µM",
    "RECORDED_MEASUREMENT": 79.5
  },
  {
    "MOLECULE": "Cn1cc(C2=C(O)C(=O)C(c3ccccc3)=C(O)C2=O)c2ccccc21 [11B]",
    "READOUT_UNITS": "µM",
    "RECORDED_MEASUREMENT": 7.9
  },
  {
    "MOLECULE": "Cc1ccc2c(C3=C(O)C(=O)C=C(O)C3=O)c[nH]c2c1C",
    "READOUT_UNITS": "µM",
    "RECORDED_MEASUREMENT": 12.8
  }
]

For Cdc25B (Homo sapiens, UniProt P30305), provide IC50 of O=C1C=C(O)C(=O)C(c2c[nH]c3cccc(F)c23)=C1O please.
1.2

GET /values?readout=IC50&system=Cdc25B (Homo sapiens, UniProt P30305)&item= COc1cccc2[nH]cc(C3=C(O)C(=O)C(c4c(C(C)(C)C)[nH]c5ccccc45)=C(O)C3=O)c12
13.7

Kindly state the measured IC50 obtained for C=CC(C)(C)c1[nH]c2ccccc2c1C1=C(O)C(=O)C(c2c[nH]c3c(CC=C(C)C)cccc23)=C(O)C1=O [8E, DAQ-B1, reference compound] with Cdc25B (Homo sapiens, UniProt P30305).
0.9

Lab note: need IC50 for COc1ccc2[nH]cc(C3=C(O)C(=O)C(c4c(C(C)(C)C)[nH]c5ccccc45)=C(O)C3=O)c2c1 on Cdc25B (Homo sapiens, UniProt P30305), anyone have it?
80.3

====

This section presents compounds with their documented inhibition at 50 µM values.
- SUBJECT_OF_TEST: UniProtKB P30304
- Sequence (P30304 whole entry, species assumed): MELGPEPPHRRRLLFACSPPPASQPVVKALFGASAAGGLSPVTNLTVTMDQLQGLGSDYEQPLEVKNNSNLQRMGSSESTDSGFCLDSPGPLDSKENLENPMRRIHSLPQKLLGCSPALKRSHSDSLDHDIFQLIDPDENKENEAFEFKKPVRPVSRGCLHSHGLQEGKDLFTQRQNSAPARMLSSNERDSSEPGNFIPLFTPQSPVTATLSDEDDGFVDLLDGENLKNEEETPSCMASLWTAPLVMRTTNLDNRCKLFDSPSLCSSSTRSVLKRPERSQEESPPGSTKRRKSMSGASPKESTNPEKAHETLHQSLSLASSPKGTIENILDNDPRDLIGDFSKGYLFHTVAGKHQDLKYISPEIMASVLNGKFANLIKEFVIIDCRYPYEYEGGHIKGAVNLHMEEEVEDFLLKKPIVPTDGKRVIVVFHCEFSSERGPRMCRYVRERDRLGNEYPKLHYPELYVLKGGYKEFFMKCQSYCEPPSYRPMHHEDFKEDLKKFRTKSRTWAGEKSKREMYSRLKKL
- MEASUREMENT_DESCRIPTION: Cdc25A phosphatase inhibition screen at 50 μM
- Assay type: biochemical
- CONDITIONS: read-out: Percent Inhibition at 50 uM compound, Cdc25 A
Expressed in %, but write only the number.

Known results for compounds:
[
  {
    "STRUCTURE_SMILES_STRING": "O=C1C=C(O)C(=O)C(c2c[nH]c3cc(OCc4ccccc4)ccc23)=C1O",
    "SUBJECT_OF_TEST": "UniProtKB P30304",
    "METRIC": "inhibition at 50 µM",
    "READOUT_UNITS": "%",
    "RECORDED_MEASUREMENT": 89
  },
  {
    "STRUCTURE_SMILES_STRING": "O=C1C=C(O)C(=O)C(c2c[nH]c3cc4c(cc23)OCO4)=C1O",
    "SUBJECT_OF_TEST": "UniProtKB P30304",
    "METRIC": "inhibition at 50 µM",
    "READOUT_UNITS": "%",
    "RECORDED_MEASUREMENT": 96
  },
  {
    "STRUCTURE_SMILES_STRING": "Cc1[nH]c2ccc(Cl)cc2c1C1=C(O)C(=O)C=C(O)C1=O",
    "SUBJECT_OF_TEST": "UniProtKB P30304",
    "METRIC": "inhibition at 50 µM",
    "READOUT_UNITS": "%",
    "RECORDED_MEASUREMENT": 91
  },
  {
    "STRUCTURE_SMILES_STRING": "O=C1C=C(O)C(=O)C(c2c[nH]c3ccc(OCc4ccccc4)cc23)=C1O",
    "SUBJECT_OF_TEST": "UniProtKB P30304",
    "METRIC": "inhibition at 50 µM",
    "READOUT_UNITS": "%",
    "RECORDED_MEASUREMENT": 96
  }
]

What value of measured inhibition at 50 µM is listed for CCCc1cccc2c(C3=C(O)C(=O)C=C(O)C3=O)c[nH]c12 ?
93

Please look up its inhibition at 50 µM: Cc1cccc2c(C3=C(O)C(=O)C=C(O)C3=O)c[nH]c12
60

Look up inhibition at 50 µM for this compound: O=C1C=C(O)C(=O)C(c2c[nH]c3ccc(Br)cc23)=C1O
96

Name the reported inhibition at 50 µM value associated with the compound CC(C)c1[nH]c2ccccc2c1C1=C(O)C(=O)C=C(O)C1=O
58

Which inhibition at 50 µM is listed for CC(C)(C)c1cccc2c(C3=C(O)C(=O)C=C(O)C3=O)c[nH]c12 ?
96
